# System: LOC_OS06G16330-cb003;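 note: purified Escherichia coli-expressed rice kinase domain construct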
# Sequence (as listed by the source): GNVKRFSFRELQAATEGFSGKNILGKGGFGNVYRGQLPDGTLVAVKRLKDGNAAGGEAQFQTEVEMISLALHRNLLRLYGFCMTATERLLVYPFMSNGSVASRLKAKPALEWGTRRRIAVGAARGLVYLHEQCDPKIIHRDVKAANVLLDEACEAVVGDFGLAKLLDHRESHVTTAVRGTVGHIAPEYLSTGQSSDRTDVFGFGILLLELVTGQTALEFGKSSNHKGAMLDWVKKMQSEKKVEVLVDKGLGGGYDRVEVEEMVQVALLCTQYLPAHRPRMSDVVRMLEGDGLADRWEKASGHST
# assay_remarks: thermal shift delta Tm vs DMSO control; higher = stronger stabilization (binding)
# reported_conditions: 12.5 µM; protein concentration 2 µM
measure_name: thermal shift delta Tm (°C)
One number for each entry, in °C.

Sample records with thermal shift delta Tm:
compound	value_units	thermal shift delta Tm
CN1CCN(c2ccc3nc(-c4c(N)c5c(F)cccc5[nH]c4=O)[nH]c3c2)CC1 [Dovitinib (TKI-258) Dilactic Acid]	°C	6.51
Cc1cc(Nc2ncnc3ccc(-c4ccc(CNCCS(C)(=O)=O)o4)cc23)ccc1Oc1ccn2ncnc2c1	°C	3.81
COc1ccc(CNC(=O)Nc2ncc([N+](=O)[O-])s2)cc1	°C	0.38

Okay, next one:
Q: Please report the measured thermal shift delta Tm for `N#Cc1ccc2ncnc(NCCc3ccccc3)c2c1`
Result: 2.48
